- study.system: human NEP (Homo sapiens)
- Construct: purchased R&D Systems, Minneapolis, Minn; 1182-ZN
- Sequence (P08473 52-750 limits assumed): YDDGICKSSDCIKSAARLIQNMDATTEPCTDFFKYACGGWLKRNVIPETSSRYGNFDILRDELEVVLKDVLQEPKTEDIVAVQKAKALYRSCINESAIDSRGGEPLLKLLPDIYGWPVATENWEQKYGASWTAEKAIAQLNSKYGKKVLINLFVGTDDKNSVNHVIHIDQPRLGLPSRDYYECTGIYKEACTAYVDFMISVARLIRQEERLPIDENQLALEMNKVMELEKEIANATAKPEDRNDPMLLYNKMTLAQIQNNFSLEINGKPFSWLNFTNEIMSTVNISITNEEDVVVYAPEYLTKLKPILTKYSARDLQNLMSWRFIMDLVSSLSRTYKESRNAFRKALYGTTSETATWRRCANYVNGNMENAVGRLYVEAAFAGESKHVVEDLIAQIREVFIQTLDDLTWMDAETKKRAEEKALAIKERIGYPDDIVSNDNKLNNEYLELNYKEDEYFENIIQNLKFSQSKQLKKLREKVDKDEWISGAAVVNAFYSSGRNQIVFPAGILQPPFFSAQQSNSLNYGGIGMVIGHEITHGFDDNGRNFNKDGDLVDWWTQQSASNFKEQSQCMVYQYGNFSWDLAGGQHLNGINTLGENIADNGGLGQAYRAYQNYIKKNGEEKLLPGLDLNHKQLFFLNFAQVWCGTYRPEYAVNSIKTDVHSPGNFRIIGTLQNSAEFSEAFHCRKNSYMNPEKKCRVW
- protocol.summary: In vitro enzyme inhibition assay at human NEP (Assay 1)
- Type: biochemical
- experimental.context: recombinant human NEP, fluorogenic peptide substrate 10 μM, 37° C.; values may be affected by hydrolysis in the assay conditions, approximations; read-out: pKi at human NEP (converted)
measured.parameter: Ki

Known results for compounds:
smiles_structure=O=C(O)C(=O)N[C@H](Cc1ccc(-c2ccccc2)cc1)C[C@@H](O)C(=O)OCCCCO[N+](=O)[O-] study_system="human NEP (Homo sapiens)" result="0.316 to 1 µM"
smiles_structure=O=C(N[C@H](Cc1ccc(-c2ccccc2)cc1)C[C@@H](O)C(=O)OCCCCOc1no[n+]([O-])c1S(=O)(=O)c1ccccc1)c1cc(O)no1 study_system="human NEP (Homo sapiens)" result="0.0316 to 0.1 µM"
smiles_structure=O=C(N[C@H](Cc1ccc(-c2ccccc2)cc1)C[C@@H](O)C(=O)OCCCCO[N+](=O)[O-])c1cc(O)no1 study_system="human NEP (Homo sapiens)" result="0.0316 to 0.1 µM"

Lookup: Indicate the recorded Ki value for this compound: O=C(O)C(=O)N[C@H](Cc1ccc(-c2ccccc2)cc1)C[C@@H](O)C(=O)OCCCCOc1no[n+]([O-])c1S(=O)(=O)c1ccccc1
Found: 0.316 to 1 µM
